Kindly supply the reported protein stability index values for the records listed here.
B1: VTI1B (parent)
chain: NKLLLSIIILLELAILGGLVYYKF

- Variants of: B1
- test details: protein stability index of a GFP-peptide fusion (GPS, HEK-293T) (PSI 1-6); higher = more stable;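 note: lentivirally expressed fusions sorted by FACS into six bins by GFP to DsRed ratio, PSI derived from sequencing read proportions per bin multiplied by bin number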
- assay context: c terminus: a fixed tail appended
Please reply with the value in numeric form only.

GET /value?item= K2A &field=protein stability index returns 3.74

Item: I9C | protein stability index: 2.97

Given item K23S , the value recorded as its protein stability index is 2.05

Per the records, this variant ( N1K ) has protein stability index equal to 1.85

Sure, the documented protein stability index for Y21D is 3.33

protein stability index reading for I8R : 1.95

Briefly, protein stability index measured for I15P : 3.21

// recorded protein stability index for L11V : 1.49

The reported value for Y22E in terms of protein stability index is 1.54

Record S6L , field protein stability index: 2.02

Data point: Y21W ; protein stability index = 2.62

Given item V20A , the value recorded as its protein stability index is 2.12

Measured protein stability index of I15R : 2.12

For this variant ( Y21E ), measured protein stability index is 2.28

protein stability index recorded for this variant, I7A , is 2.32

# protein stability index of I15D = 3.64

So for L13A , the logged protein stability index turned out to be 2.4

According to the records, this variant Y22C displays protein stability index of 2.53

Form field protein stability index, entry G17V : 2.85

Kindly note the recorded protein stability index for Y22Q , which is 3.06

Measured protein stability index of G17E : 3.26

Notebook: L4C , protein stability index read as 2.35

Provenance of the data: the supplement of paper PMC10567573
